RUN_DESCRIPTION: qHTS of alpha-syn Inhibitors; note: nearly all actives have a fitted effect of over 65% in size
CONDITION_SET: Yeast expressing alpha-synuclein, BacTiter-Glo, 24 h; growth rescue; series mostly up to 46.1 µM
Screen size: about 370,000 compounds; about 500 (0.14%) were called active. Inconclusive results (about 2%) are left out. Calls come from the whole dose curve; as a rule, active = well fitted activation curve with a large enough effect; inconclusive = small, poorly fitted or top-dose-only effect; inactive = no such curve, though single readings can be large or run the other way. The sample holds actives, similar compounds and a random draw of the others, so the mix is not that of the screen.
Outcome codes: t for active, f for inactive

[[record]]
compound = "C(=Nc1ccc(/C=C/c2ccnc3ccccc23)cc1)c1cc2c3c(c1)CCCN3CCC2"
label_class = "f"

[[record]]
compound = "OCC(O)C(O)C(O)C(O)C=Nc1ccc(/C=C/c2ccnc3ccccc23)cc1 (stereo not given)"
label_class = "f"

[[record]]
compound = "CCCSc1nc2sc3c(c2c(=O)n1-c1cccc(Br)c1)CC(C)(C)OC3"
label_class = "f"

[[record]]
compound = "Cc1cccc(-c2nnc(SC(C)C(=O)Nc3ccccc3)n2C)c1 (stereo not given)"
label_class = "f"

[[record]]
compound = "COc1ccc(CNC(=O)CSc2nc3ccccc3nc2Cc2ccccc2)cc1"
label_class = "f"

[[record]]
compound = "Brc1cccc[n+]1Cc1cccc(C[n+]2ccccc2Br)c1"
label_class = "f"

[[record]]
compound = "CC(C)CC(=O)NC(=S)NNC(=O)c1cccc([N+](=O)[O-])c1"
label_class = "t"

[[record]]
compound = "C/C(=N\\NC(=O)c1cccc([N+](=O)[O-])c1)c1cccnc1"
label_class = "f"

[[record]]
compound = "O=C(NC(=S)NC1CCS(=O)(=O)C1)c1cccc([N+](=O)[O-])c1 (stereo not given)"
label_class = "f"

[[record]]
compound = "Cc1c(NS(=O)(=O)c2ccc(Cl)cc2)c(=O)n(-c2ccccc2)n1C"
label_class = "f"


====

RUN_DESCRIPTION: qHTS of alpha-syn Inhibitors; note: nearly all actives have a fitted effect of over 65% in size; note: potency is the fitted concentration of half-maximal effect
CONDITION_SET: Yeast expressing alpha-synuclein, BacTiter-Glo, 24 h; growth rescue; series mostly up to 46.1 µM
Text: The goal of this project is to identify new chemical probes capable of reversing the toxicity associated with the Parkinson disease-related protein, alpha-synuclein. Compounds will be selected on their ability to restore growth in yeast cells expressing toxic levels of alpha-synuclein. […] Please note that in the set-up this yeast-based assay compounds that inhibit as alpha-syn, have a read-out as activators. […]
Among all 370,000 compounds or so, about 500 (0.14%) were called active. Inconclusive results (about 2%) are left out. For the sample, actives were picked, then their nearest neighbours and some compounds at random.
READOUT_KIND: Potency

[[record]]
molecule = "CC(=O)c1cccc(-c2ccc(CN3C(CC(C)C)C(=O)N(Cc4cn(CC5CCCCC5)nn4)CCS3(=O)=O)cc2)c1 (stereo not given)"
readout_kind = "Potency"
measured_result = "inactive"

[[record]]
molecule = "COc1ccc(-c2ccc(CN3C(CC(C)C)C(=O)N(Cc4cn(CC5CCCCC5)nn4)CCS3(=O)=O)cc2)cn1 (stereo not given)"
readout_kind = "Potency"
measured_result = "inactive"

[[record]]
molecule = "COc1ccc(C(C)(O)c2nc(-c3cc(F)cc(F)c3)cs2)cc1 (stereo not given)"
readout_kind = "Potency"
measured_result = "inactive"

[[record]]
molecule = "C[C@@H]1C(c2ccc(F)cc2)=NN(c2ccc(Br)cc2)[C@H]1C(=O)N1CCOC1=O"
readout_kind = "Potency"
measured_result = "22.4 µM (active)"

[[record]]
molecule = "O=C1OCCN1C(=O)[C@H]1[C@H](c2ccc(Cl)cc2)C(c2cccc(Cl)c2)=NN1c1ccc(Br)cc1"
readout_kind = "Potency"
measured_result = "inactive"

[[record]]
molecule = "Cc1ccc(-c2nnc3ccc(SCC(N)=O)nn23)cc1"
readout_kind = "Potency"
measured_result = "inactive"

[[record]]
molecule = "COc1cc2nc(N3CCCN(C)CC3)nc(NC(C)C)c2cc1OC"
readout_kind = "Potency"
measured_result = "inactive"

[[record]]
molecule = "CN(C)CCCn1c(-c2ccc(Cl)cc2)csc1=Nc1ccccc1"
readout_kind = "Potency"
measured_result = "inactive"

[[record]]
molecule = "CO[C@H]1O[C@@H]2O[C@@]3(C)CC[C@@H]4[C@@H](C)CC[C@@H]([C@H]1C)[C@@]24OO3"
readout_kind = "Potency"
measured_result = "inactive"

[[record]]
molecule = "O=C1OCCN1C(=O)[C@H]1[C@H](c2ccccc2)C(c2ccc(F)cc2)=NN1c1ccccc1"
readout_kind = "Potency"
measured_result = "inactive"

[[record]]
molecule = "CC(C)CC1C(=O)N(Cc2cn(CC3CCCCC3)nn2)CCS(=O)(=O)N1Cc1ccc(-c2ccc(Cl)cc2)cc1 (stereo not given)"
readout_kind = "Potency"
measured_result = "1.58 µM (active)"

[[record]]
molecule = "CN(C)c1ccc(/C=C/c2sc3ccccc3[n+]2C)cc1"
readout_kind = "Potency"
measured_result = "inactive"

[[record]]
molecule = "Cc1cccc(N(C)C(=O)CS(=O)(=O)c2cccc3nsnc23)c1"
readout_kind = "Potency"
measured_result = "inactive"

[[record]]
molecule = "Cc1[nH]c2ccccc2c1C(=O)C(=O)N(C)c1ccccc1"
readout_kind = "Potency"
measured_result = "inactive"

[[record]]
molecule = "CN(O)C(=S)c1ccccc1"
readout_kind = "Potency"
measured_result = "3.55 µM (active)"

[[record]]
molecule = "CC1(C)Cc2ccccc2-c2c[nH]c(=O)n21"
readout_kind = "Potency"
measured_result = "inactive"

[[record]]
molecule = "CCOC(=O)c1c(-c2ccc(OC)cc2)oc2ccc(OCc3ccc(C(=O)OC)cc3)cc12"
readout_kind = "Potency"
measured_result = "inactive"

[[record]]
molecule = "COc1ccc(C(C)(NC(C)=O)c2nc(-c3ccc(S(C)(=O)=O)cc3)cs2)cc1 (stereo not given)"
readout_kind = "Potency"
measured_result = "inactive"

[[record]]
molecule = "CC1(C)C=Cc2c(ccc(C(=O)/C=C/c3ccccc3)c2O)O1"
readout_kind = "Potency"
measured_result = "inactive"

[[record]]
molecule = "CC1(C)CC(=O)c2cc(C(=O)NCc3ccccc3)c(=O)[nH]c2C1"
readout_kind = "Potency"
measured_result = "inactive"

